Tested on: DU-145 prostate
Experiment: NCI-60 one-dose screen, 48 h
Conditions: 10 µM unless noted
This is part of a sample that, as a whole, favours compounds with a hit. Of some 83,000 tested, about 20% had one in any assay. The source made the active and inactive calls. How the source made its calls: active means growth percent below 10; inactive means the rest.
API: response.call in Yes (active), No (inactive)

The following molecules have reported results that may help.
Exam item: Write down the call the test reported for this molecule. Item: `COC(=O)c1c2c(c(C)[n+]([O-])c1C)C(=O)C(NCc1ccc(F)c(Cl)c1)=CC2=O`
Marked response: No

Exam item: Recorded test outcome, item `CCOC(=O)c1csc(NC(=O)COc2cccc(/C=C3\Oc4cc(OC)ccc4C3=O)c2)n1`
Marked response: No

Exam item: Status in this test for `NC(N)=NN=C(c1ccccc1)c1ccccc1` ?
Marked response: No

Exam item: Per the assay record, what outcome was assigned to `COc1cccc(-c2nn(-c3ccccc3)cc2-c2ccnc(NCCCNC(=O)c3ccc(F)cc3)c2)c1` ?
Marked response: No

Exam item: Given `CS(=O)(=O)c1ccc(Nc2nc(N[C@H]3CCCC[C@H]3N)nc3cc[nH]c(=O)c23)cc1` , state the outcome it received in this test.
Marked response: No

Further cases:
Exam item: Please let me know the test result on file for `O=C(NCCCNc1cc(-c2cn(-c3ccccc3)nc2-c2cccc(O)c2)ccn1)c1ccccc1` .
Marked response: No

Exam item: So what was the verdict on `CN1CCN(C(=O)c2c3c(n4ccccc24)C(=O)c2ncccc2C3=O)CC1` in this test?
Marked response: No

Exam item: I'd appreciate the recorded outcome for `COc1ccccc1CNCCCN1C(=O)c2ccc3c4c(ccc(c24)C1=O)C(=O)N(CCCNCCCCN)C3=O` from this test.
Marked response: Yes

Exam item: Could you kindly confirm the outcome this assay logged for `Oc1c(CN2CCCC2)cc(COCc2ccc(Br)cc2)c2cccnc12` ?
Marked response: No

Exam item: Hey, what did the test say about Cc1c(C(=O)NC(Cc2ccccc2)C(O)C(=O)NCc2ccc(F)cc2)[nH]c2ccccc2c1=O (stereo not given) ?
Marked response: No

Exam item: Give the logged outcome of this assay for the following molecule: `COc1cc(C(=O)/C=C/c2c(C(F)(F)F)nc3sccn23)cc(OC)c1OC`
Marked response: No

Exam item: Please let me know the test result on file for `O=C(COc1ccc(/C=C2\Oc3ccccc3C2=O)cc1)Nc1nc2ccccc2s1` .
Marked response: Yes

Exam item: Fill in: this test's call for `C=CC(=O)Nc1cccc(Oc2nccc(Nc3nnc(C4CC4)s3)n2)c1` is ___
Marked response: No
